target-under-test: Matrix metalloproteinase-9 (Homo sapiens) (UniProt P14780)
Sequence (P14780 whole entry): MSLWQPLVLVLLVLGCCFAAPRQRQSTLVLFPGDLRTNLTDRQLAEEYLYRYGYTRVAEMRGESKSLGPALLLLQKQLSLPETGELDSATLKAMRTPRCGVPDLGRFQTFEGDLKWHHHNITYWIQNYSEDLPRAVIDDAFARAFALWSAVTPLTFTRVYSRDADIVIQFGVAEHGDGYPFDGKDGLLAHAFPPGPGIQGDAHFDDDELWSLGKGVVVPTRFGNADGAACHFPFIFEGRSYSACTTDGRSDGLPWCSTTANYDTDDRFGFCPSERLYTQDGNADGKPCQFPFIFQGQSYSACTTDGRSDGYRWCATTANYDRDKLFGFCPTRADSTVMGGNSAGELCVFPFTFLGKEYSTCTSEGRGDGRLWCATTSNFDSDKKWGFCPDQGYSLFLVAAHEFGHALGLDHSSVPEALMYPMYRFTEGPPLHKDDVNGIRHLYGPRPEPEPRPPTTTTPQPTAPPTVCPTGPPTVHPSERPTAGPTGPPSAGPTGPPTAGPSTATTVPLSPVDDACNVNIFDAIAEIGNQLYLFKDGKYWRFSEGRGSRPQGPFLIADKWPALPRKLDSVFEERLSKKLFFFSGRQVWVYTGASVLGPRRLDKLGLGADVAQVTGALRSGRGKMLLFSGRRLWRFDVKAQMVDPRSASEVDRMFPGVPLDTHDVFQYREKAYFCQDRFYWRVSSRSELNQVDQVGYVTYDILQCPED
test-summary: Inhibition of MMP9 at 10 uM by fluorimetric assay
Design: scale not given: the % may be the effect or the level left
measure-name: Activity

Would you please look over these solved cases?
CC(C)C/C(=C\[C@H](O)CNC(=O)[C@H](Cc1ccccc1)NC(=O)c1ccc(F)cc1)C(=O)N[C@@H](CCCNC(=N)N)C(=O)N[C@@H](Cc1c[nH]c2ccccc12)C(N)=O | 103%
CC(C)C[C@@H](C[C@H](O)CNC(=O)[C@H](Cc1ccccc1)NC(=O)c1ccc(F)cc1)C(=O)N[C@@H](CCCNC(=N)N)C(=O)N[C@@H](Cc1c[nH]c2ccccc12)C(N)=O | 100%

**Q:** For the molecule `CC(C)C[C@H](C[C@@H](O)CNC(=O)[C@H](Cc1ccccc1)NC(=O)c1ccc(F)cc1)C(=O)N[C@@H](CCCNC(=N)N)C(=O)N[C@@H](Cc1c[nH]c2ccccc12)C(N)=O` , give its reported Activity.
**A:** 109%

Taken from ChEMBL document CHEMBL1140226.
